Give pIC50 for every item shown.
Molecular target: P-Selectin (Homo sapiens)
Sequence (P16109 42-771): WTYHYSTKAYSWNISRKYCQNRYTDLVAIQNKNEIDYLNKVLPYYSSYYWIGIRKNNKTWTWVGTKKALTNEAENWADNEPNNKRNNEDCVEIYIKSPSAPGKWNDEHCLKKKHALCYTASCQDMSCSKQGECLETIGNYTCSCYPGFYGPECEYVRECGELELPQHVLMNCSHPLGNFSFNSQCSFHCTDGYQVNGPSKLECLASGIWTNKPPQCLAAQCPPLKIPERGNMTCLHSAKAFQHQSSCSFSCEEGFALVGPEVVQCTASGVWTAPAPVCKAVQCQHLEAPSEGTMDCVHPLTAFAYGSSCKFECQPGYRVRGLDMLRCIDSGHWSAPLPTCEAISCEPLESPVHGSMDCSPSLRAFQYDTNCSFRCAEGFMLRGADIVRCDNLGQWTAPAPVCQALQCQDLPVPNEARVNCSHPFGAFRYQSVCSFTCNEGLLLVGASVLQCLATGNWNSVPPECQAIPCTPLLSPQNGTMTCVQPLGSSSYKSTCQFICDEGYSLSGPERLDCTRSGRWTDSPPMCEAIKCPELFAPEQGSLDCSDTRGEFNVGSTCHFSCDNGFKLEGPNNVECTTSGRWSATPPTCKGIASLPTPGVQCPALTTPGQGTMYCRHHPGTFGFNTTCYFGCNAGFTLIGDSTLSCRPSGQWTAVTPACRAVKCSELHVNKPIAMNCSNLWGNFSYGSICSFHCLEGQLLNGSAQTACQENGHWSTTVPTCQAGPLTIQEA
Experiment: Inhibition of HL60 cell adhesion to soluble, recombinant P-selectin (P-selectin-IgG1 fusion protein)
Format: cell-based
Settings: inhibition of HL60 cell adhesion to soluble, recombinant adhesion molecules; read-out: IC50 P-Selectin
From the text: Carrying out these assays to measure the inhibitory activity of the compounds according to the invention on cell adhesion of promyelocytic cells by means of selecting is described in detail in European Published Application EP 0 601 417. In order to test the efficacy of the carbohydrate conjugates on the interaction between the E- and P-selectins (former nomenclature ELAM-1 or GMP-140) with their ligands, an assay is used which in each case is specific only for one of these interactions. […]
Numbers only, as −log10 of the molar value.

See these solved cases before continuing.
CCCCCCCCCCCCCCCC(=O)N[C@@H](CSCC(COC(=O)CCCCCCCCCCCCCCC)OC(=O)CCCCCCCCCCCCCCC)C(=O)NCCCCCCO[C@@H]1O[C@H](CO)[C@@H](O[C@@H]2O[C@H](CO)[C@H](O)[C@H](O[C@]3(C(=O)O)C[C@H](O)[C@@H](NC(C)=O)[C@H]([C@H](O)[C@H](O)CO)O3)[C@H]2O)[C@H](O[C@@H]2O[C@@H](C)[C@@H](O)[C@@H](O)[C@@H]2O)[C@H]1NC(C)=O (stereo partly shown) = 4.00
CC(=O)N[C@H]1[C@H](OCCCCCCNC(=O)C2CCC(CN3C(=O)C=CC3=O)CC2)O[C@H](CO)[C@@H](O[C@@H]2O[C@H](CO)[C@H](O)[C@H](O[C@]3(C(=O)O)C[C@H](O)[C@@H](NC(C)=O)[C@H]([C@H](O)[C@H](O)CO)O3)[C@H]2O)[C@@H]1O[C@@H]1O[C@@H](C)[C@@H](O)[C@@H](O)[C@@H]1O (stereo partly shown) = 3.48
CC(=O)N[C@H]1[C@H](OCCCCCCNC(=O)CCSSc2ccccn2)O[C@H](CO)[C@@H](O[C@@H]2O[C@H](CO)[C@H](O)[C@H](O[C@]3(C(=O)O)C[C@H](O)[C@@H](NC(C)=O)[C@H]([C@H](O)[C@H](O)CO)O3)[C@H]2O)[C@@H]1O[C@@H]1O[C@@H](C)[C@@H](O)[C@@H](O)[C@@H]1O = 3.40
CC(=O)N[C@H]1[C@H](OCCCCCCN)O[C@H](CO)[C@@H](O[C@@H]2O[C@H](CO)[C@H](O)[C@H](O[C@]3(C(=O)O)C[C@H](O)[C@@H](NC(C)=O)[C@H]([C@H](O)[C@H](O)CO)O3)[C@H]2O)[C@@H]1O[C@@H]1O[C@@H](C)[C@@H](O)[C@@H](O)[C@@H]1O [III (n = 6), reference compound] = 2.70
CC(=O)N[C@H]1[C@H](OCCCCCCNC(=O)CCC(=O)O)O[C@H](CO)[C@@H](O[C@@H]2O[C@H](CO)[C@H](O)[C@H](O[C@]3(C(=O)O)C[C@H](O)[C@@H](NC(C)=O)[C@H]([C@H](O)[C@H](O)CO)O3)[C@H]2O)[C@@H]1O[C@@H]1O[C@@H](C)[C@@H](O)[C@@H](O)[C@@H]1O = 2.82

Incoming: Need pIC50 of CC(=O)N[C@H]1[C@H](OCCCCCCNC(=O)CCCC[C@@H]2SC[C@@H]3NC(=O)N[C@@H]32)O[C@H](CO)[C@@H](O[C@@H]2O[C@H](CO)[C@H](O)[C@H](O[C@]3(C(=O)O)C[C@H](O)[C@@H](NC(C)=O)[C@H]([C@H](O)[C@H](O)CO)O3)[C@H]2O)[C@@H]1O[C@@H]1O[C@@H](C)[C@@H](O)[C@@H](O)[C@@H]1O , thanks.
Outgoing: 3.22

---

Answer each item with its documented pIC50.
target: E-Selectin (Homo sapiens, UniProt P16581); test: Inhibition of HL60 cell adhesion to soluble, recombinant E-selectin (E-selectin-IgG1 fusion protein); assay type: cell-based; details: inhibition of HL60 cell adhesion to soluble, recombinant adhesion molecules; read-out: IC50 E-Selectin
Sequence (P16581 22-556): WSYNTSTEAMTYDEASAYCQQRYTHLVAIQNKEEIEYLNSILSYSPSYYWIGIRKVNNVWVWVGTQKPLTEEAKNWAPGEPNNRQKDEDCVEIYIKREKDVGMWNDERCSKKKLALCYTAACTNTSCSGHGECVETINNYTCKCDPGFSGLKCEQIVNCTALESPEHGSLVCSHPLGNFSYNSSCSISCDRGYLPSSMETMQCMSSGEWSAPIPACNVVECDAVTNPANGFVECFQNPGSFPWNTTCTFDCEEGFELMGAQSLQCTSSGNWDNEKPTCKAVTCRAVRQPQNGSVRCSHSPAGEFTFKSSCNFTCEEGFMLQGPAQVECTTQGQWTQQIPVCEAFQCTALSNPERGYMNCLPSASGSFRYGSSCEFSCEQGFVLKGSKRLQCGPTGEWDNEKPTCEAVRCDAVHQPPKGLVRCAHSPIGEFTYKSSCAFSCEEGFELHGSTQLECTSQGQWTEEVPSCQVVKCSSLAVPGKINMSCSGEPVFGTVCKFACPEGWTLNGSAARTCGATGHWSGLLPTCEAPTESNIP
Give bare numbers, as −log10 of the molar value.

CC(=O)N[C@H]1[C@H](OCCCCCCNC(=O)[C@@H](N)CCC(=O)O)O[C@H](CO)[C@@H](O[C@@H]2O[C@H](CO)[C@H](O)[C@H](O[C@]3(C(=O)O)C[C@H](O)[C@@H](NC(C)=O)[C@H]([C@H](O)[C@H](O)CO)O3)[C@H]2O)[C@@H]1O[C@@H]1O[C@@H](C)[C@@H](O)[C@@H](O)[C@@H]1O = 2.92
CC(=O)N[C@H]1[C@H](OCCCCCCNC(=O)CCSSc2ccccn2)O[C@H](CO)[C@@H](O[C@@H]2O[C@H](CO)[C@H](O)[C@H](O[C@]3(C(=O)O)C[C@H](O)[C@@H](NC(C)=O)[C@H]([C@H](O)[C@H](O)CO)O3)[C@H]2O)[C@@H]1O[C@@H]1O[C@@H](C)[C@@H](O)[C@@H](O)[C@@H]1O = 3.41

Please turn your attention to the following entry.
Incoming: Record lookup: for E-Selectin (Homo sapiens, UniProt P16581), what pIC50 belongs to CCCCCCCCCCCCCCCC(=O)N[C@@H](CSCC(COC(=O)CCCCCCCCCCCCCCC)OC(=O)CCCCCCCCCCCCCCC)C(=O)NCCCCCCO[C@@H]1O[C@H](CO)[C@@H](O[C@@H]2O[C@H](CO)[C@H](O)[C@H](O[C@]3(C(=O)O)C[C@H](O)[C@@H](NC(C)=O)[C@H]([C@H](O)[C@H](O)CO)O3)[C@H]2O)[C@H](O[C@@H]2O[C@@H](C)[C@@H](O)[C@@H](O)[C@@H]2O)[C@H]1NC(C)=O (stereo partly shown) ?
Outgoing: 4.70
